Biological target: T1, ZFP SBS#1260 (synthetic)
T1 chain: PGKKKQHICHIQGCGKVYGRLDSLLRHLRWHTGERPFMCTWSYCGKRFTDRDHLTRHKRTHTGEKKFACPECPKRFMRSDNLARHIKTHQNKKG
Test: EMSA
Conditions: tags: MBP fusion
Measure name: pKd
pKd is a log-scale quantity: -log10 of the concentration expressed in molar.

Please give the measured pKd for this binder: GAGTGTGTG (dsDNA) DNA 1: GAGTGTGTG DNA 2: CACACACTC
8.74
